tested on: S. pneumoniae ATCC 49619; assay: In vitro antibacterial activity, microbroth dilution method (CLSI method); format: cell-based; settings: bacteria symbol C = S. pneumoniae ATCC 49619
measurement-kind: MIC values (minimum inhibitory concentration) (µg/mL)

Worked cases, MIC values (minimum inhibitory concentration) given:
Query block: Name the recorded MIC values (minimum inhibitory concentration) for CCN(CCNC[C@@]1(O)[C@H](C)O[C@@H](O[C@H]2[C@H](C)[C@@H](O[C@@H]3O[C@H](C)C[C@H](N(C)C)[C@H]3O)[C@@](C)(OC)C[C@@H](C)C(=O)[C@H](C)N3CC(C3)OC(=O)[C@@H]2C)C[C@@]1(C)OC)[C@@H](C)c1ccccc1OC .
Result block: 0.03

Query block: # MIC values (minimum inhibitory concentration) lookup, item CCN(CCNC[C@@]1(O)[C@H](C)O[C@@H](O[C@H]2[C@H](C)[C@@H](O[C@@H]3O[C@H](C)C[C@H](N(C)C)[C@H]3O)[C@@](C)(OC)C[C@@H](C)[C@H](O)[C@H](C)N3CC(C3)OC(=O)[C@@H]2C)C[C@@]1(C)OC)[C@@H](C)c1ccccc1OC
Result block: 0.03

Query block: Requested read-out: MIC values (minimum inhibitory concentration). Entry: COc1ccccc1C(C)(C)N(C)CC1CN(CC2(O)C(C)OC(OC3C(C)C(=O)OC4CN(C4)C(C)C(O)C(C)CC(C)(OC)C(OC4OC(C)CC(N(C)C)C4O)C3C)CC2(C)OC)C1 (stereo not drawn)
Result block: 0.03

A: COc1ncccc1C(C)(C)N(C)CCN(C)C[C@@]1(O)[C@H](C)O[C@@H](O[C@H]2[C@H](C)[C@@H](O[C@@H]3O[C@H](C)C[C@H](N(C)C)[C@H]3O)[C@@](C)(O)C[C@@H](C)[C@H](O)[C@H](C)N3CC(C3)OC(=O)[C@@H]2C)C[C@@]1(C)OC
B: COc1ccccc1C(C)(C)N(C)CCN(C)CC1(O)C(C)OC(OC2C(C)C(=O)OC3CN(C3)C(C)C(O)C(C)CC(C)(OC)C(OC3OC(C)CC(N(C)C)C3O)C2C)CC1(C)OC (stereo not drawn)
C: COC1(C)CC(C)C(O)C(C)N2CC(C2)OC(=O)C(C)C(OC2CC(C)(OC)C(O)(CNCCNC(C)(C)c3cccc4c3ccn4C)C(C)O2)C(C)C1OC1OC(C)CC(N(C)C)C1O (stereo not drawn)
Query block: Your job: order these 3 records by MIC values (minimum inhibitory concentration), ascending. Rank them, then answer with their labels in that order.
Result block: B, A, C

Ref: patent US8299035B2
